assay: LAP4-GFP expression modulators in yeast, confirmation, cell-based, cherry picks, flow cytometry, mother/daughter gates (AID 2271);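 also: ratio of sample to DMSO plate mean so 100% equals DMSO level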; details: S. cerevisiae LAP4-GFP strain, 3 h, at 10 µM, active compounds read high, 100 means same as DMSO control
reported-endpoint: GFP response relative to DMSO (%)
Numeric answer only, unit % assumed.

Query: Requested read-out: GFP response relative to DMSO. Entry: O=C1C2C3C=CC(CO)(O3)C2C(=O)N1c1ccccc1-c1ccccc1 (stereo not drawn)
Reply: 135

###

target: Beta-adrenergic receptor kinase 1 (Homo sapiens) (UniProt P25098); test: GRK2 binders displacing RNA aptamer, biochemical, validation, human GRK2, bead flow cytometry (AID 488806); conditions: bead-bound GRK2, FAM-aptamer displacement, at 10 µM, active compounds read high
Sequence (P25098 whole entry, looked up): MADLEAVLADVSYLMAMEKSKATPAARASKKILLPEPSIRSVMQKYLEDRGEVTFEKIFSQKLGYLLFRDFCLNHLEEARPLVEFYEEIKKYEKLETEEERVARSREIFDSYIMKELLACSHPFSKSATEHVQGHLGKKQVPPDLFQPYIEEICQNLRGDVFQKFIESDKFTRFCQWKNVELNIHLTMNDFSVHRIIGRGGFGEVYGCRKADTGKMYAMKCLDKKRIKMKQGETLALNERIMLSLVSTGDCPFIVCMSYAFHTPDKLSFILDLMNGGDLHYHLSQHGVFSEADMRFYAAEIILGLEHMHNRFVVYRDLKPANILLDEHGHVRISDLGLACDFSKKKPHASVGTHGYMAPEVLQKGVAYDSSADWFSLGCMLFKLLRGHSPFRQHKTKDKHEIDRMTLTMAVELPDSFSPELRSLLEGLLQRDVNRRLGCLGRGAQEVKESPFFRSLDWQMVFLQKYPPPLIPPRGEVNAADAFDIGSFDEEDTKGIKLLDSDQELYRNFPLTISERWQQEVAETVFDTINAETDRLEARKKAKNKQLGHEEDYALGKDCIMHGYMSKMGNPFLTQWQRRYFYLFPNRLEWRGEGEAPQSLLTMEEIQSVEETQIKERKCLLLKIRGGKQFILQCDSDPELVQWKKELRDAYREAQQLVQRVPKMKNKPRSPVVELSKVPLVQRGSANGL
Reported aptamer binding inhibition values for the following molecules.
Give the value, in units of %, as a plain number.

Check out these entries, answers already filled in.
[[record]]
molecule = "CN1CCCC(OC(=O)c2ccc3c(c2)OCCO3)C1 (stereo not given)"
reported_endpoint = "aptamer binding inhibition"
number = 0

[[record]]
molecule = "COc1ccccc1C1C(C#N)=C(N)Oc2c1oc(CO)cc2=O (stereo not given)"
reported_endpoint = "aptamer binding inhibition"
number = 2

[[record]]
molecule = "CCN(CC)Cc1c[nH]c2c(C(=O)OC)cccc12"
reported_endpoint = "aptamer binding inhibition"
number = 0


Query: Recorded aptamer binding inhibition for CC1(C)C2CCC1(C(=O)O)c1nc3ccccc3nc12 (stereo not given) , please?
Reply: 2

Query: Can you share its aptamer binding inhibition? I mean this molecule: OC(COCc1ccccc1)CN1CCN(Cc2ccc3c(c2)OCO3)CC1 (stereo not given)
Reply: 2

Query: Which aptamer binding inhibition reading was recorded for the molecule CC(C)NCC(O)COc1ccc(CCOCC2CC2)cc1 (stereo not given) ?
Reply: -6

Query: Consider the molecule CCOC(=O)c1cnc2ccc(C(=O)OC)cc2c1Nc1ccc2c(c1)OCCO2 and give its measured aptamer binding inhibition.
Reply: 6

Query: Requested read-out: aptamer binding inhibition. Entry: Nc1nc2ccc(OC(F)(F)F)cc2s1
Reply: 4

Query: I am curious: what aptamer binding inhibition value has been reported for COc1ccccc1C(=O)N=C1NC(=O)CC2C(=O)NCCN12 (stereo not given) ?
Reply: 0

Query: Could you tell me which aptamer binding inhibition is on file for C[C@H]1C[C@H]2[C@@H]3CCC4=CC(=O)C=C[C@]4(C)[C@@]3(Cl)[C@@H](O)C[C@]2(C)[C@@]1(O)C(=O)CO ?
Reply: 2

Query: What value of aptamer binding inhibition has been recorded for this entry: Nc1cccc(C(=O)O)c1
Reply: 4

###

Catalogue of compounds with associated GFP response vs DMSO
assay: RPL19A-GFP modulators, yeast TOR pathway, confirmation, cell-based, S. cerevisiae, flow cytometry, cherry picks, mother/daughter gates (AID 2270); conditions: S. cerevisiae RPL19A-GFP strain, 3 h, at 10 µM, active compounds read low, 100 = same GFP as DMSO wells
Calls of active or inactive are those of the source.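 The calls were made as follows: active = GFP response below 50% of the DMSO control; inconclusive = fewer than 70 events counted for a yeast strain; inactive = the rest.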

// known answers, use as guide
[[record]]
compound = "O=C(N/N=C/c1c(Cl)cccc1Cl)c1ccc(F)cc1"
reported_endpoint = "GFP response vs DMSO"
result = "95% (inactive)"

[[record]]
compound = "COc1cc(/C=C/C(=O)c2c(O)cc(C)oc2=O)cc(OC)c1O"
reported_endpoint = "GFP response vs DMSO"
result = "98.2% (inactive)"

[[record]]
compound = "O=C(c1ccc(Cl)c([N+](=O)[O-])c1)N1CCN(c2ccccc2)CC1"
reported_endpoint = "GFP response vs DMSO"
result = "99.4% (inactive)"

[[record]]
compound = "N#C/C(=C/c1ccc(N2CCOCC2)o1)c1ccc(Cl)cc1"
reported_endpoint = "GFP response vs DMSO"
result = "96.8% (inactive)"

[[record]]
compound = "COc1ccccc1CNc1nc(S(=O)(=O)c2ccccc2)c(Cl)s1"
reported_endpoint = "GFP response vs DMSO"
result = "97.3% (inactive)"

[[record]]
compound = "O=S(=O)(c1cccc(C(F)(F)F)c1)c1ccc(O)cn1"
reported_endpoint = "GFP response vs DMSO"
result = "98.8% (inactive)"

[[record]]
compound = "CC(=O)Nc1c(-c2ccc(F)cc2)nc2ccccn12"
reported_endpoint = "GFP response vs DMSO"
result = "97.6% (inactive)"

[[record]]
compound = "CCN(CC)S(=O)(=O)c1ccc(O)c(C(=O)OCC(=O)NC2CCCC2)c1"
reported_endpoint = "GFP response vs DMSO"
result = "99.2% (inactive)"


Query: So what's the measured GFP response vs DMSO for this one? CCc1cccc(C)c1NC(=O)CC1Oc2ccc(C)cc2NC1=O (stereo unspecified)
Reply: 99.3% (inactive)

Query: Which GFP response vs DMSO is reported for this compound? Cn1c(=O)c(C(=O)NC2CCCCCCC2)c(O)c2ccccc21
Reply: 101% (inactive)

Query: Entry under review: O=C(NC(=S)NNC(=O)c1cnccn1)c1ccc(F)cc1 . Reported GFP response vs DMSO?
Reply: 110% (inactive)

Source of measurements: PubChem BioAssay
